# assay-overview: Stability of DCHA+ salts 3 heated in different solvents (31P NMR)
# Format: physicochemical
# experimental-setup: water; H2O, pH 4.0, 3.5 h, 82-84° C.; read-out: conversion to phosphate
value-type: degraded at 3.5 h (%)
One number for each entry, in %.

QUERY: Bench note: what degraded at 3.5 h did COC(=O)/C(=N\O)P(=O)(O)O show?
RESULT: 100

----------
# assay-overview: pH dependence of the stability of DCHA+ salts 3 in D2O (31P NMR)
# Format: physicochemical
# experimental-setup: t = 24 h, pH 8.1, D2O, 22° C.; read-out: E isomer (% int, 31P NMR)
value-type: remaining at 24 h (%)
Answers are plain numbers, in %.

QUERY: Bench note: what remaining at 24 h did COC(=O)/C(=N\O)P(=O)(O)O show?
RESULT: 91.3
